Recorded values, source patent US20260207602A1.

Recorded IC50 by entry
tested_system: intracellular phosphorylation of EGFR (Tyr1068) in PC-9 cells (Homo sapiens, UniProt P00533, DEL746-750)
Sequence (P00533 with tags, fused parts or gaps DEL746-750): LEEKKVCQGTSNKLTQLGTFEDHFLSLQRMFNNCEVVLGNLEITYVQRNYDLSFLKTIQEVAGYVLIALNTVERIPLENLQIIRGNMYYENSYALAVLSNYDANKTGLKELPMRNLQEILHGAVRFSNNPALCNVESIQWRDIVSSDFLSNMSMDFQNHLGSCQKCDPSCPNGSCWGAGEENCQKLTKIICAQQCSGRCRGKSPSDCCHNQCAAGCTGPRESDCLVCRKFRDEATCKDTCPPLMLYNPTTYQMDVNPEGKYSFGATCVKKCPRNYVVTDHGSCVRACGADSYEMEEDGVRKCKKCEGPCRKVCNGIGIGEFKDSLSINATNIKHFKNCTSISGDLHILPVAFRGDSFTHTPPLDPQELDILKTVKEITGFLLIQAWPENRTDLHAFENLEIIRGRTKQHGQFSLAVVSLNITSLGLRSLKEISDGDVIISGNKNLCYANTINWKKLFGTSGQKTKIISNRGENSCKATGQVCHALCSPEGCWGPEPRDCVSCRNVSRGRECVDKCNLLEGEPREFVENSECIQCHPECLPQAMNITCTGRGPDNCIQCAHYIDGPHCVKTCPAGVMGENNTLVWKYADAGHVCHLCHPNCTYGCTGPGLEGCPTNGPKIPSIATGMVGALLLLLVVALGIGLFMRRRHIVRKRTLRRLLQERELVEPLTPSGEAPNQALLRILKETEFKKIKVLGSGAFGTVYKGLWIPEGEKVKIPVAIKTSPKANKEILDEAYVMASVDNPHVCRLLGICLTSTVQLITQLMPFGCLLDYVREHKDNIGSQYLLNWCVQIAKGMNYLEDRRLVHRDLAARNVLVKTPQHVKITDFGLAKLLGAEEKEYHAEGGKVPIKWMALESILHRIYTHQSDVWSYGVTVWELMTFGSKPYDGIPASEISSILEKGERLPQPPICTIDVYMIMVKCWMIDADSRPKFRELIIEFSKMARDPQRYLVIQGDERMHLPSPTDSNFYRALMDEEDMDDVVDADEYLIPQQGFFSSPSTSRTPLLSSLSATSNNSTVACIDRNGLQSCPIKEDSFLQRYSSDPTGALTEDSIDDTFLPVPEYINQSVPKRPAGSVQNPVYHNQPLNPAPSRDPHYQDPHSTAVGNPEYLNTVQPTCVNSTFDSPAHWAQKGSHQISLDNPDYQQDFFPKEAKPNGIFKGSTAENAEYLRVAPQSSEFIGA
test: PC-9 pEGFR AlphaLISA assay
test_parameters: 4 hours incubation, read-out: Phos EGFR PC9 IC50

// query Return reported IC50. Input molecule: C[C@@H](Oc1c(F)c(-c2cnn(C)c2)cc2ncnc(Nc3ccc4ncsc4c3F)c12)C1COC1 (single isomer, unassigned) [Example A27]
// result 10.1 to 50 nM

Attention now shifts to the item below.
// query Return reported IC50. Input molecule: "Cn1cc(-c2cc(OC3CCN(CCO)CC3)c3c(Nc4ccc5ncsc5c4)ncnc3c2)cn1"
// result 10.1 to 50 nM

---

tested_system: intracellular phosphorylation of EGFR (Tyr1068) in PC-9 cells (Homo sapiens, UniProt P00533, DEL746-750)
test: PC-9 pEGFR AlphaLISA assay
test_parameters: 4 hours incubation, read-out: Phos EGFR PC9 IC50
pIC50: −log10 of the molar value.
readout_label: pIC50

Solved cases below.
// query Return reported pIC50. Input compound: C[C@@H](Oc1cc(N2CC3CC(C2)O3)cc2ncnc(Nc3ccc4ncsc4c3)c12)C1COC1 [Example 129]
// result ≥ 8.00

// query Return reported pIC50. Input compound: Cn1cc(-c2cc(O[C@H]3COC[C@H]3F)c3c(Nc4ccc5ncsc5c4)ncnc3c2)cn1 (racemic) [Example A10]
// result ≥ 8.00

// query Return reported pIC50. Input compound: CO[C@@H]1CCN(C)C[C@H]1Oc1cc(-c2cnn(C)c2)cc2ncnc(Nc3ccc4ncsc4c3)c12 (single isomer, unassigned) [Example A39]
// result < 7.30

// query Return reported pIC50. Input compound: CN1CCN(CC#Cc2cc(OC3CCOCC3)c3c(Nc4ccc5ncsc5c4F)ncnc3c2)CC1 [Example A24]
// result 7.30 to 8.00

// query Return reported pIC50. Input compound: C[C@@H](Oc1cc(-c2cnn(C)c2)cc2ncnc(Nc3ccc4ncsc4c3)c12)[C@H]1CN(C)CCO1 (single isomer, unassigned) [Example 209]
// result ≥ 8.00

Next:
// query Return reported pIC50. Input compound: C[C@H](Oc1cc(-c2cnn(C)c2)cc2ncnc(Nc3ccc4ncsc4c3F)c12)C1CCOC1 (stereo partly shown) [Example 90]
// result 7.30 to 8.00

// query Return reported pIC50. Input compound: CN1CCC[C@@H](Oc2cc(-c3cnn(C)c3)cc3ncnc(Nc4ccc5ncsc5c4)c23)C1 (single isomer, unassigned) [Example 47]
// result 7.30 to 8.00

---

tested_system: intracellular phosphorylation of EGFR (Tyr1068) in PC-9 cells (Homo sapiens, UniProt P00533, DEL746-750)
test: PC-9 pEGFR AlphaLISA assay
test_parameters: 4 hours incubation, read-out: Phos EGFR PC9 IC50
readout_label: IC50

Solved cases below.
// query Return reported IC50. Input compound: C[C@@H]1CNCCN1c1cc(O[C@H](C)C2COC2)c2c(Nc3ccc4ncsc4c3F)ncnc2c1 (single isomer, unassigned) [Example 105]
// result 10.1 to 50 nM

// query Return reported IC50. Input compound: Cn1cc(-c2cc(O[C@@H]3C[C@@H](O)[C@@H](O)C3)c3c(Nc4ccc5ncsc5c4)ncnc3c2)cn1 (single isomer, unassigned) [Example A22]
// result 10.1 to 50 nM

// query Return reported IC50. Input compound: "Cn1cc(-c2cc(OC3CCN(C4COC4)CC3)c3c(Nc4ccc5ncsc5c4F)ncnc3c2)cn1"
// result ≤ 10 nM

// query Return reported IC50. Input compound: COc1nn(C)cc1-c1cc(O[C@H]2CNC[C@H]2F)c2c(Nc3ccc4ncsc4c3)ncnc2c1 (racemic)
// result 10.1 to 50 nM

// query Return reported IC50. Input compound: COc1nn(C)cc1-c1cc(O[C@@H]2CN(C)C[C@H]2F)c2c(Nc3ccc4ncsc4c3)ncnc2c1 (racemic)
// result 10.1 to 50 nM

Attention now shifts to the item below.
// query Return reported IC50. Input compound: COc1cn(C)nc1-c1cc(O[C@H](C)C2COC2)c2c(Nc3ccc4ncsc4c3)ncnc2c1 (single isomer, unassigned) [Example 121]
// result 10.1 to 50 nM

---

Recorded pIC50 by entry
tested_system: intracellular phosphorylation of EGFR (Tyr1068) in PC-9 cells (Homo sapiens, UniProt P00533, DEL746-750)
test: PC-9 pEGFR AlphaLISA assay
Type: cell-based
test_parameters: 4 hours incubation, read-out: Phos EGFR PC9 IC50
pIC50: −log10 of the molar value.

Solved cases below.
// query Return reported pIC50. Input compound: "COc1nn(C)cc1-c1cc(O[C@@H]2CCNC[C@H]2F)c2c(Nc3ccc4ncsc4c3F)ncnc2c1"
// result ≥ 8.00

// query Return reported pIC50. Input compound: "COC[C@@H](C)Oc1cc(-n2cc(C(C)(C)O)cn2)cc2ncnc(Nc3ccc4ncsc4c3F)c12"
// result ≥ 8.00

// query Return reported pIC50. Input compound: Cn1cc(-c2cc(O[C@H]3CCOC[C@@H]3F)c3c(Nc4ccc5ncsc5c4)ncnc3c2)cn1 (single isomer, unassigned) [Example 46]
// result ≥ 8.00

// query Return reported pIC50. Input compound: COc1cc2ncnc(Nc3ccc4ncsc4c3)c2cc1NC(=O)C1CCCN(C)C1 (stereo not shown)
// result 7.30 to 8.00

// query Return reported pIC50. Input compound: COCC[C@@H](C)Oc1cc(-c2cnn(C)c2)cc2ncnc(Nc3ccc4ncsc4c3F)c12 (single isomer, unassigned)
// result ≥ 8.00

// query Return reported pIC50. Input compound: CO[C@@H]1CN(C)CC[C@H]1Oc1cc(-c2cnn(C)c2)cc2ncnc(Nc3ccc4ncsc4c3)c12 (single isomer, unassigned) [Example A44]
// result 7.30 to 8.00

Attention now shifts to the item below.
// query Return reported pIC50. Input compound: "CCN1CCN(C(=O)Nc2cc3c(Nc4ccc5ncsc5c4)ncnc3cc2-c2ccn(C)n2)[C@H](C)C1"
// result ≥ 8.00

---

tested_system: intracellular phosphorylation of EGFR (Tyr1068) in PC-9 cells (Homo sapiens, UniProt P00533, DEL746-750)
test: PC-9 pEGFR AlphaLISA assay
test_parameters: 4 hours incubation, read-out: Phos EGFR PC9 IC50
Protocol: PC-9/A431 pEGFR AlphaLISA Assays Inhibitory effects of compounds were evaluated in cellular assays that measure level of intracellular phosphorylation of EGFR in PC-9 (ECACC, #90071810, Milipore/Sigma) and A431 cell lines (ATCC, CRL-1555) using AlphaLISA sureFire ultra p-EGFR (Tyr1068) assay kit (PerkinElmer, ALSU-PEGFR-A50K). […] On the next day, the plate was read the Envision using standard AlphaLisa settings. […]
pIC50: −log10 of the molar value.
Recorded pIC50 by entry

Solved cases below.
// query Return reported pIC50. Input compound: CN1CC[C@H](O)[C@@H](Oc2cc(-c3cnn(C)c3)cc3ncnc(Nc4ccc5ncsc5c4)c23)C1 (single isomer, unassigned) [Example A34]
// result < 7.30

// query Return reported pIC50. Input compound: CO[C@H]1CCN(c2cc(O[C@H](C)C3COC3)c3c(Nc4ccc5ncsc5c4)ncnc3c2)C1 [Example 197]
// result ≥ 8.00

// query Return reported pIC50. Input compound: COc1cc2ncnc(Nc3ccc4ncsc4c3)c2cc1-c1cnn(C2CCN(C)CC2)c1 [Example 163]
// result ≥ 8.00

Attention now shifts to the item below.
// query Return reported pIC50. Input compound: COc1cn(C)nc1-c1cc(O[C@H](C)C2COC2)c2c(Nc3ccc4ncsc4c3)ncnc2c1 (single isomer, unassigned) [Example 120]
// result ≥ 8.00

---

Recorded pIC50 by entry
tested_system: intracellular phosphorylation of EGFR (Tyr1068) in PC-9 cells (Homo sapiens, UniProt P00533, DEL746-750)
test: PC-9 pEGFR AlphaLISA assay
test_parameters: 4 hours incubation, read-out: Phos EGFR PC9 IC50
pIC50: −log10 of the molar value.

// query Return reported pIC50. Input molecule: "COc1cc2ncnc(Nc3ccc4ncsc4c3)c2cc1-c1cnn(C)c1"
// result ≥ 8.00

// query Return reported pIC50. Input molecule: "COc1cc2c(Nc3ccc4ncsc4c3)ncnc2cc1-c1cnn(C)c1"
// result ≥ 8.00

// query Return reported pIC50. Input molecule: OC(Cn1cc(-c2cc(OC3CCOCC3)c3c(Nc4ccc5ncsc5c4)ncnc3c2)cn1)C(F)(F)F (stereo not shown)
// result 7.30 to 8.00

Attention now shifts to the item below.
// query Return reported pIC50. Input molecule: C[C@@H](Oc1cc(-c2cnn(C)c2)cc2ncnc(Nc3ccc4ncsc4c3F)c12)C1CN(C)C1 (single isomer, unassigned) [Example 387]
// result ≥ 8.00

---

Recorded IC50 by entry
tested_system: EGFR L858R (Homo sapiens, UniProt P00533, L858R)
Construct: purchased SignalChem E10-122BG
Sequence (P00533 25-1210 L858R): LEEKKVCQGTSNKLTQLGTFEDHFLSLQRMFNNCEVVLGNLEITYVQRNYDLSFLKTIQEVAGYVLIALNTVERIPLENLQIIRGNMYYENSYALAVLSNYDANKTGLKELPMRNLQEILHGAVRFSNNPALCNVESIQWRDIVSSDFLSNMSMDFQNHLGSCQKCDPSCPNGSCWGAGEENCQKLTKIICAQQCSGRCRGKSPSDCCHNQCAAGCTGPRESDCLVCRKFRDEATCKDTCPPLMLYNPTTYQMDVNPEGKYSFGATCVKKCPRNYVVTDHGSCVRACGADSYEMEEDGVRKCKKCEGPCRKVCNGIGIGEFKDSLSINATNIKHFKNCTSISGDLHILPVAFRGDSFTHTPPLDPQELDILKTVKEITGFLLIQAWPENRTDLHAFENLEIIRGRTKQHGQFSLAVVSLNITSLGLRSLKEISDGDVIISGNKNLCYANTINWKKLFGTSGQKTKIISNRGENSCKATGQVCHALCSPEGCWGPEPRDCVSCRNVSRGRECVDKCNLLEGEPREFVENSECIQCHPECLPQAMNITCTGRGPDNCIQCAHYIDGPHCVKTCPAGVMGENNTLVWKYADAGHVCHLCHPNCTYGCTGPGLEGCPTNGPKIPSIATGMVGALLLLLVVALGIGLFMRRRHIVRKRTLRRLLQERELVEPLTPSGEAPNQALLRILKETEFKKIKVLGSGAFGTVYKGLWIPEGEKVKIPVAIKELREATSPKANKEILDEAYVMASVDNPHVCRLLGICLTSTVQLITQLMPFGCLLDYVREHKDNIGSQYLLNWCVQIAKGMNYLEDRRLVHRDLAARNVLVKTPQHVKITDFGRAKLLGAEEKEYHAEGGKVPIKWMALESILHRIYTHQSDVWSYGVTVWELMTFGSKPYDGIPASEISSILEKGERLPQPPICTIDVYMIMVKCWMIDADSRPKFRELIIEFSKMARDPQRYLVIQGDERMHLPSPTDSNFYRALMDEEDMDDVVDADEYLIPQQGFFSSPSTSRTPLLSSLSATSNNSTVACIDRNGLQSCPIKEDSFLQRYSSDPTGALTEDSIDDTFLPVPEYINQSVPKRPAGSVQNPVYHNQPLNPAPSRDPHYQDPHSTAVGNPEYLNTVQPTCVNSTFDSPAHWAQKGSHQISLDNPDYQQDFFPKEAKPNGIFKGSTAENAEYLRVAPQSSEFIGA
test: Biochemical EGFR inhibition assay (Caliper mobility shift), EGFR L858R
test_parameters: biochemical Caliper mobility shift assay, EGFR L858R enzyme; read-out: Enz EGFR L858R IC50

// query Fetch value of IC50 on EGFR L858R (Homo sapiens, UniProt P00533, L858R) for Cn1cc(-c2cc(O[C@H]3CCOC[C@@H]3F)c3c(Nc4ccc5ncsc5c4)ncnc3c2)cn1 (single isomer, unassigned) [Example 45] .
// result ≤ 10 nM

Next:
// query Fetch value of IC50 on EGFR L858R (Homo sapiens, UniProt P00533, L858R) for Cn1cc(-c2cc(O[C@H]3CNC[C@H](F)C3)c3c(Nc4ccc5ncsc5c4)ncnc3c2)cn1 (racemic) .
// result ≤ 10 nM

// query Fetch value of IC50 on EGFR L858R (Homo sapiens, UniProt P00533, L858R) for Cn1cc(-c2cc(O[C@@H]3CC[C@@H]3O)c3c(Nc4ccc5ncsc5c4)ncnc3c2)cn1 (single isomer, unassigned) [Example A51] .
// result ≤ 10 nM
